Hey, just so you know, these numbers are from patent US20220378931A1.

Molecular target: T1, rat serum albumin (rat, UniProt P02770 25-608)
T1 construct: bought protein, amine-coupled to a CM5 chip; also called Rat SA; RSA
Assay: SPR (Biacore 8K), albumin immobilised, 25 C, 1:1 kinetics
test readout: kon (M⁻¹ s⁻¹)
Quick reminder: number only, in M⁻¹ s⁻¹, skip the unit.

Example binders with recorded kon:
INS Analog 28 (other, single-chain insulin B-L2-A-L1-VHH fusion; also called Ex. 28) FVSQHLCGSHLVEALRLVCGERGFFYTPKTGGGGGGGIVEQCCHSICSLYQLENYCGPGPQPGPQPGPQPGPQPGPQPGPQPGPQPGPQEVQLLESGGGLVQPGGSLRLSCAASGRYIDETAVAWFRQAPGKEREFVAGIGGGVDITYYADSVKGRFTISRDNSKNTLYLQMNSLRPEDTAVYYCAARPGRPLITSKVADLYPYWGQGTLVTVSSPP ... 180000
INS Analog 30 (other, single-chain insulin B-L2-A-L1-VHH fusion; also called Ex. 30) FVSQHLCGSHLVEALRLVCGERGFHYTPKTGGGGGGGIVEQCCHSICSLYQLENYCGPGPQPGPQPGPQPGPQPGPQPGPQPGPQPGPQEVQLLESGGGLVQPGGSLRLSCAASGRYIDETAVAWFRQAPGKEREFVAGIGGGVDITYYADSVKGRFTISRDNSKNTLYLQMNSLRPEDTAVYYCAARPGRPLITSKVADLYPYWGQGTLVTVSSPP ... 170000
INS Analog 25 (other, single-chain insulin B-L2-A-L1-VHH fusion; also called Ex. 25) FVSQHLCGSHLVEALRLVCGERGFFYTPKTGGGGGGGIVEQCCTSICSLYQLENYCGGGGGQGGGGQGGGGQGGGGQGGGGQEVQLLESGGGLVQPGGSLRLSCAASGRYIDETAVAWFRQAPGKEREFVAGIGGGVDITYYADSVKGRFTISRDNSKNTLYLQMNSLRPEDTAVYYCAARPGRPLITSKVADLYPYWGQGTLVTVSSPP ... 200000

QUERY: Any idea what its kon is? The binder is INS Analog 24 (other, single-chain insulin B-L2-A-L1-VHH fusion; also called Ex. 24) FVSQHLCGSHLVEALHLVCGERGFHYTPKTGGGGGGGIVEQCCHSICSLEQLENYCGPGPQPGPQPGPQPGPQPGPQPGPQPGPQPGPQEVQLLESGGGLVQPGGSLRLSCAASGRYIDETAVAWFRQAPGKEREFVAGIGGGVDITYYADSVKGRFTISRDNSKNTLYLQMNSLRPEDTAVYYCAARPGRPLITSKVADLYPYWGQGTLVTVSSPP
RESULT: 140000
